Source: ChEMBL document CHEMBL1141004

Biological target: Cytochrome P450 3A4 (Homo sapiens, UniProt P08684)
Sequence (P08684 whole entry): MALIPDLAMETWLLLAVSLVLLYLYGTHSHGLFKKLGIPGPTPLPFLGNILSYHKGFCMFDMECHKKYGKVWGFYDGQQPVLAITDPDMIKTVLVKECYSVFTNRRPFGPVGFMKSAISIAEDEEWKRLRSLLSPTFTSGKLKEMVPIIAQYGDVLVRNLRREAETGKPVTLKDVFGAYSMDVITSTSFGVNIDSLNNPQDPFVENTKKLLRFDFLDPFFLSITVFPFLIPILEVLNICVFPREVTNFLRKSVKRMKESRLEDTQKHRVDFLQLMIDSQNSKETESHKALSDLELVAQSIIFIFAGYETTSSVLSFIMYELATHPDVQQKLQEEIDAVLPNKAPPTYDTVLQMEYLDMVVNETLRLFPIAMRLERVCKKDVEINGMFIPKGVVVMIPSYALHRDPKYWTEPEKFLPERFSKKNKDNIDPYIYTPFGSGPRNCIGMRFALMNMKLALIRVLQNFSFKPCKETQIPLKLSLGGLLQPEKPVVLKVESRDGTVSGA
Assay: Inhibition of CYP3A4 at 30 uM by FRET assay
Format: ADME
Note to self: values exactly at 40% are Yes. So inhibition (INH) at or above 40% is Yes, below is No.

>  <COMPOUND>
O=C(COc1ccccc1)NC(c1ccccc1Cl)c1cc(Cl)c2cccnc2c1O (centres undefined)

>  <CLASS NAME>
Yes

$$$$
>  <COMPOUND>
O=C(COc1ccccc1)NC(c1ccccc1Cl)c1cc(Br)c2cccnc2c1O (centres undefined)

>  <CLASS NAME>
No

$$$$
>  <COMPOUND>
CN(CC(=O)NC(c1ccccc1Cl)c1cc(Cl)c2cccnc2c1O)c1ccccc1 (centres undefined)

>  <CLASS NAME>
No

$$$$
>  <COMPOUND>
O=C(COc1cccnc1)NC(c1cccc([N+](=O)[O-])c1)c1cc(Cl)c2cccnc2c1O (centres undefined)

>  <CLASS NAME>
Yes

$$$$
>  <COMPOUND>
O=C(COc1ccccc1)NC(c1cccc([N+](=O)[O-])c1)c1cc(Cl)c2cccnc2c1O (centres undefined)

>  <CLASS NAME>
No

$$$$
>  <COMPOUND>
COc1ccc(C(NC(=O)COc2ccc(C)cc2)c2cc(Cl)c3cccnc3c2O)cc1 (centres undefined)

>  <CLASS NAME>
Yes

$$$$

Prompt: Has CC(=O)c1ccc(NCC(=O)NC(c2ccc(C)cc2)c2cc(Cl)c3cccnc3c2O)cc1 (centres undefined) a recorded inhibition (INH) greater than or equal to 40%?
Completion: Yes

Prompt: Does O=C(CNCc1ccccc1)NC(c1cccc(F)c1)c1cc(Cl)c2cccnc2c1O (centres undefined) have a reported inhibition (INH) of at least 40%?
Completion: No

* * *

Sequence of the target: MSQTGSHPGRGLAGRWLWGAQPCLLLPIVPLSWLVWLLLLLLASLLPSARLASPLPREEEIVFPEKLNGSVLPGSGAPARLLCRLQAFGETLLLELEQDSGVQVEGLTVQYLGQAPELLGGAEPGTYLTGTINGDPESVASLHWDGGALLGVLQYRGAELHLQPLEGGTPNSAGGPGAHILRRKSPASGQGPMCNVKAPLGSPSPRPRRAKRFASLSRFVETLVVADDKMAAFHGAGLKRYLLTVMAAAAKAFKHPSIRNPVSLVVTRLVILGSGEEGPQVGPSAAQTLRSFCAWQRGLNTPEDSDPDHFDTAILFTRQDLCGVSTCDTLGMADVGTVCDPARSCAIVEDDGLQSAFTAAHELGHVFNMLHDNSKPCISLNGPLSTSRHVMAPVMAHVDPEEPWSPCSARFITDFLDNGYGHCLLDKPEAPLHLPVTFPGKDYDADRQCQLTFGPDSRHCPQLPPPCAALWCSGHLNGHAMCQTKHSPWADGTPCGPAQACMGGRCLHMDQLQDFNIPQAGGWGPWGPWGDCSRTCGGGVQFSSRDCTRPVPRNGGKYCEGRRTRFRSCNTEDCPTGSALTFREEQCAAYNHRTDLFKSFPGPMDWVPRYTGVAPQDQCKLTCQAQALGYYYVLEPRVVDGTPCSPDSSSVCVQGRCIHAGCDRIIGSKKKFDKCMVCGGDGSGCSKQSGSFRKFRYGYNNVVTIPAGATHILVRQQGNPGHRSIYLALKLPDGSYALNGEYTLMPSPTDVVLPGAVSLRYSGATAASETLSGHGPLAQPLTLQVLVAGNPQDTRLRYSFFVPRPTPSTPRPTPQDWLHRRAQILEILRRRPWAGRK
Give measured pIC50 for each item. Keep answers brief.
Numbers only, as −log10 of the molar value.

>  <COMPOUND>
O=C(COc1ccccc1)NC(c1ccccc1Cl)c1cc(Cl)c2cccnc2c1O (stereo not drawn)

>  <READOUT>
pIC50

>  <ENDPOINT RESULT>
5.62

$$$$

# input for lookup
Prompt: Please look at this compound and report its pIC50: O=C(COc1ccccc1)NC(c1cccc([N+](=O)[O-])c1)c1cc(Cl)c2cccnc2c1O (stereo not drawn)
Completion: 5.72

* * *

Target: Cytochrome P450 3A4 (Homo sapiens)
Assay: Inhibition of CYP3A4 at 30 uM by FRET assay
Assay type: ADME
Consider the following compounds; for each one, report its inhibition (INH).

Guide cases for inhibition (INH), answers given:
>  <COMPOUND>
O=C(COc1ccccc1)NC(c1cccc([N+](=O)[O-])c1)c1cc(Br)c2cccnc2c1O (stereo not drawn)

>  <STUDY TARGET>
Cytochrome P450 3A4 (Homo sapiens)

>  <ENDPOINT RESULT>
38%

$$$$
>  <COMPOUND>
Cc1cc(NCC(=O)NC(c2cccc(F)c2)c2cc(Cl)c3cccnc3c2O)ccc1Cl (stereo not drawn)

>  <STUDY TARGET>
Cytochrome P450 3A4 (Homo sapiens)

>  <ENDPOINT RESULT>
14%

$$$$
>  <COMPOUND>
O=C(COc1ccccc1)NC(c1cccc(F)c1)c1cc(Cl)c2cccnc2c1O (stereo not drawn)

>  <STUDY TARGET>
Cytochrome P450 3A4 (Homo sapiens)

>  <ENDPOINT RESULT>
57%

$$$$

// for each compound in input: emit inhibition (INH)
1. O=C(COc1ccccc1)NC(c1ccc([N+](=O)[O-])cc1)c1cc(Cl)c2cccnc2c1O (stereo not drawn)
2. Cc1ccc(OCC(=O)NC(c2ccccc2)c2cc(Cl)c3cccnc3c2O)cc1 (stereo not drawn)
3. Cc1ccc(C(NC(=O)CNc2ccc(Cl)c(C)c2)c2cc(Cl)c3cccnc3c2O)cc1 (stereo not drawn)
4. O=C(COc1ccccc1)NC(c1ccccc1)c1cc(F)c2cccnc2c1O (stereo not drawn)

Completion:
["13%", "69%", "12%", "22%"]

For every listed record, write down its inhibition (INH).
1. O=C(COc1cccnc1)NC(c1cccc(F)c1)c1cc(Cl)c2cccnc2c1O (stereo not drawn)
2. COc1ccc(C(NC(=O)COc2cccnc2)c2cc(Cl)c3cccnc3c2O)cc1 (stereo not drawn)
3. Cc1ccc(C(NC(=O)CNc2ccc(C#N)cc2)c2cc(Cl)c3cccnc3c2O)cc1 (stereo not drawn)
4. CC(=O)c1ccc(NCC(=O)NC(c2cccc([N+](=O)[O-])c2)c2cc(Cl)c3cccnc3c2O)cc1 (stereo not drawn)
5. COc1ccc(C(NC(=O)COc2ccc(Oc3ccccc3)cc2)c2cc(Cl)c3cccnc3c2O)cc1 (stereo not drawn)
6. O=C(COc1ccccc1)NC(c1ccccc1)c1ccc2cccnc2c1O (stereo not drawn)
7. COc1ccc(OCC(=O)NC(c2ccc(OC)cc2)c2cc(Cl)c3cccnc3c2O)cc1 (stereo not drawn)

Completion:
["35%", "33%", "29%", "27%", "21%", "56%", "74%"]

Could you report inhibition (INH) for every entry in the following list?
1. Cc1ccccc1C(NC(=O)COc1ccccc1)c1cc(Cl)c2cccnc2c1O (stereo not drawn)
2. O=C(COc1ccccc1)NC(c1ccccc1[N+](=O)[O-])c1cc(Cl)c2cccnc2c1O (stereo not drawn)
3. CN(CC(=O)NC(c1cccc(F)c1)c1cc(Cl)c2cccnc2c1O)Cc1ccccc1 (stereo not drawn)

Completion:
1: 10%; 2: 38%; 3: 32%

List the reported inhibition (INH) of each compound below.
1. CN(C)c1cccc(OCC(=O)NC(c2cccc(F)c2)c2cc(Cl)c3cccnc3c2O)c1 (stereo not drawn)
2. CC(=O)Nc1ccc(NCC(=O)NC(c2cccc([N+](=O)[O-])c2)c2cc(Cl)c3cccnc3c2O)cc1 (stereo not drawn)

Completion:
1: 53%; 2: 8%

Look at each compound and report its inhibition (INH).
1. CC(=O)Nc1ccc(OCC(=O)NC(c2ccccc2Cl)c2cc(Cl)c3cccnc3c2O)cc1 (stereo not drawn)
2. CN(CC(=O)NC(c1cccc([N+](=O)[O-])c1)c1cc(Cl)c2cccnc2c1O)Cc1ccccc1 (stereo not drawn)
3. Cc1ccc(C(NC(=O)COc2ccccc2)c2cc(Cl)c3cccnc3c2O)cc1 (stereo not drawn)
4. COc1ccc(C(NC(=O)COc2cccc(N(C)C)c2)c2cc(Cl)c3cccnc3c2O)cc1 (stereo not drawn)
5. O=C(COc1ccccc1)NC(c1ccccc1F)c1cc(Cl)c2cccnc2c1O (stereo not drawn)
6. Cc1cc(NCC(=O)NC(c2ccccc2Cl)c2cc(Cl)c3cccnc3c2O)ccc1Cl (stereo not drawn)
7. Cc1ccc(C(NC(=O)COCc2ccccc2)c2cc(Cl)c3cccnc3c2O)cc1 (stereo not drawn)
8. O=C(COc1ccccc1)NC(c1ccc(Cl)cc1)c1cc(Cl)c2cccnc2c1O (stereo not drawn)

Completion:
1. 4%
2. 20%
3. 45%
4. 56%
5. 24%
6. 11%
7. 45%
8. 38%

Prompt: Look up and report inhibition (INH), with Cytochrome P450 3A4 (Homo sapiens) as system, for O=C(COCc1ccccc1)NC(c1cccc(F)c1)c1cc(Cl)c2cccnc2c1O (stereo not drawn)
Completion: 46%
